# assay-name: in vitro
# condition-info: mouse, Average Cell Viability
outcome-measure: viability at 22 min, 9.9 mM (%)

molecule	value-units	reading
N [Ammonium Hydroxide, ammonium hydroxide]	%	84
